# assay-procedure: PSAC antagonists in infected red cells, primary screen, cell-based, P. falciparum Indochina, OD700, 1 h (AID 1154)
# study-conditions: P. falciparum Indochina infected RBC osmotic lysis, higher = more signal, called active from +8 up or from −8 down
We use 2 as the dividing line for z-score: on or above the line is met, below is not met.

Reference set, count: 4
compound	group
CCCNC(=O)OC[C@H]1O[C@H](CCON=Cc2ccc(C(=O)N3[C@H](c4ccc(C)cc4)[C@@H](C)CC[C@H]3C(=O)OC)cc2)C=C[C@@H]1Oc1ccc(OC)cc1	not met
CCOC(=O)[C@H](CC(C)C)NC(=O)CCC1CC(OC(=O)NCCc2ccc(F)cc2)CC2(CCCC(COC(=O)NCCc3ccc(Cl)cc3)O2)O1 (some centres not stated)	met
C#CCCCON=C1C[C@@H](O)[C@@H](O)[C@@H]2[C@@H]3C(=O)N(c4ccc(F)cc4F)C(=O)[C@@H]3CC[C@@H]12	not met
O=C1C[C@@H](O)[C@@H](O)[C@@H]2[C@@H]3C(=O)N(Cc4ccccc4)C(=O)[C@@H]3CC[C@@H]12	not met

Q) API: above_or_equal(metric=z-score, cutoff=2) for item CCOC(=O)[C@H](CC(C)C)NC(=O)CCC1CC(OC(=O)NCc2ccc3c(c2)OCO3)CC2(CCCC(COC(=O)NCC(c3ccccc3)c3ccccc3)O2)O1 (some centres not stated)
A) met

Q) Same thing, different compound: O=C(NN=C1C[C@@H](O)[C@@H](O)[C@@H]2[C@@H]3C(=O)N(C4CCCCC4)C(=O)[C@@H]3CC[C@@H]12)OCc1ccccc1
A) met

Q) Please do the same for CC(C)CCN1CCc2nc(COc3ccccc3)c3c(c2C1)CO[C@@H](C)C3 as well.
A) met

---

# assay-procedure: small-molecule microarray binders of probe aEGFR, primary screen, biochemical, biotinylated probe, 635/667 nm fluorescence (AID 1097);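 also: probe is a biotinylated anti-EGFR antibody binding compounds printed on slides; score combines fluorescence near 667 nm and signal to noise of each spot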
# study-conditions: higher = more signal
measured-parameter: composite z-score
Would you mind answering with just the numeric figure?

Use the examples below as a reference point.
compound	measured
CO[C@H]1COC(=O)[C@@H]2CCCN2C(=O)CC=C[C@@H](C)[C@H](OC)COC(=O)[C@@H](OCc2ccccc2)C=C[C@@H]1C	0.0564
CC(=O)Nc1ccc([C@@H]2N[C@H](C(=O)O)CC[C@H]2C)cc1	-0.0493
CCOC(=O)[C@H](Cc1ccccc1)NC(=O)CCC1CC(OC(=O)NCCc2ccc(F)cc2)CC2(CCCC(COC(=O)NCC3CCCCC3)O2)O1 (some centres undefined)	0.0282
CC1O[C@H]2C3=C(C(=O)[C@@H]4O[C@@H]4[C@H]3O)[C@@H]1C1[C@@H](C)OC=C3[C@H](O)C4O[C@@H]4C(=NOCc4ccccc4)[C@]312 (some centres undefined)	-0.148
COC(=O)NCC=Cc1nc(CCCO)co1	0.0678
CO[C@@H]1COC(=O)[C@@H](C)COC(=O)[C@@H](C)NC(=O)CC=C[C@@H]1C	-0.0041
CSCC[C@@H]1NC(=O)CC=C[C@@H](C)COC(=O)[C@@H](C)COC1=O	-0.197
CC(CCN1CCCCc2nc(C)c(C)cc21)=NOC[C@@H](O)COCc1ccco1	0.592

Shift focus to the following entry.
Q) May I ask what composite z-score has been recorded for C#CCCCON=C1[C@H]2CCn3c(=O)n(-c4ccccc4)c(=O)n3[C@H]2[C@H](O)[C@@H]2O[C@H]12 ?
A) -0.0938

---

# assay-procedure: FRG1 promoter luciferase signal modulators, primary screen, FRG1 inhibition for FSHD, cell-based, C2C12 myotubes, firefly/Renilla luciferase, luminescence (AID 1084)
# study-conditions: higher = more signal, called active from +8 up or from −8 down
Active and inactive are the calls of the source.
Catalogue of z-score readings, one per entry.

Q) If you can, please state the reported z-score value of CCO[C@H](c1cc(OC)cc([N+](=O)[O-])c1OC)[C@H](C)C=CCC(=O)OC .
A) 0.157 (inactive)

Q) Consider next the compound CC(C)=CCCC(C)=CCON=C1C[C@@H](O)[C@@H](O)[C@@H]2[C@@H]3C(=O)N(c4ccc(F)cc4F)C(=O)[C@@H]3CC[C@H]12 in the same way.
A) -0.389 (inactive)

---

# assay-procedure: small-molecule microarray binders of probe aDKK1, primary screen, biochemical, biotinylated probe, 635/667 nm fluorescence (AID 1099);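 also: score merges 667nm spot fluorescence with signal to noise across triplicate slides; reference of the scale not given here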
# study-conditions: higher = more signal
// not fulfilled strictly below -0.2 in composite z-score; fulfilled otherwise

Some solved entries appear below for comparison.
molecule	group
CC(C)=NOC[C@@H](C)[C@H](OCc1ccccc1)C(C)C	fulfilled
COC(=O)CC=C[C@@H](C)[C@@H](C=NO[C@H](C)c1cn([C@H](CO)Cc2ccccc2)nn1)OC	not fulfilled
CSCC[C@@H]1NC(=O)CC=C[C@@H](C)COC(=O)[C@@H](C)COC1=O	not fulfilled
O=C1C[C@@H](O)[C@@H](O)[C@@H]2[C@@H]3C(=O)N(C[C@@H]4CCCO4)C(=O)[C@@H]3CC[C@@H]12	fulfilled
CCOC(=O)[C@H](Cc1ccccc1)NC(=O)CCC1CC(OC(=O)NCc2cccc3ccccc23)CC2(CCCC(COC(=O)NCC(c3ccccc3)c3ccccc3)O2)O1 (stereo partly drawn)	fulfilled

Q) # bool: composite z-score of COC(=O)C1=C(C)N(Cc2ccccc2)[C@]23O[C@](C(=O)OC)(C(=O)N2[C@@H]1c1ccccc1)C(C(=O)OC)=C3C(=O)OC >= -0.2
A) not fulfilled

Q) Now give it for COC(=O)CC=C[C@@H](C)[C@@H](C=NO[C@H](C)c1cn([C@@H]2COC[C@H]2O)nn1)NS(=O)(=O)c1ccc(C)cc1 too.
A) not fulfilled

---

# assay-procedure: yeast growth modulation, basal conditions, primary screen, YJM789 clinical isolate, OD600, 24 h (AID 1089);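 also: growth of clinical yeast isolate S. cerevisiae YJM 789 seeded 1000 cells per well; test concentration not given here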
# study-conditions: S. cerevisiae YJM789 growth, higher = more signal, called active from +8 up or from −8 down
The source made the active and inactive calls.
Recorded z-score values for a group of molecules are listed next.

molecule	measured-parameter	measured
COc1cc(O)c(C(=O)C=Cc2ccc3c(c2)OCO3)c(OC)c1	z-score	1.11 (inactive)

Q) Fill blank: measured z-score of the molecule COC(=O)[C@H](C)NC(=O)CCC1CC(OC(=O)NCCc2ccc(F)cc2)CC2(CCCC(COC(=O)NCc3cccc(C(F)(F)F)c3)O2)O1 (some centres undefined) is ____.
A) -0.207 (inactive)

Q) Same question for O=C1C2=CC[C@H]3C(=O)N(c4cccc(Oc5ccccc5)c4)C(=O)[C@H]3[C@H]2[C@H](O)[C@@H]2O[C@H]12 please.
A) 0.135 (inactive)

Q) # repeat for CC(CCN1CCCc2nc(C)c(C)cc21)=NOC(C)CN1CCCCc2nc(C)c(C)cc21 (centres undefined)
A) -0.415 (inactive)

Q) Again, but for CCOC(=O)C1=NO[C@@]2(C=C(Br)C3(OCCCO3)[C@H]3O[C@H]32)C1
A) 0.74 (inactive)

Q) Same read-out for COc1ccc(O[C@H]2C=C[C@@H](c3ccccc3)O[C@@H]2CON=C2[C@H]3CCn4c(=O)n(-c5ccccc5)c(=O)n4[C@H]3[C@H](O)[C@@H]3O[C@H]23)cc1 ?
A) -0.417 (inactive)

Q) Would you mind doing CC(C)CON=C1C[C@@H](O)[C@@H](O)[C@@H]2[C@@H]3C(=O)N(C(C)(C)C)C(=O)[C@@H]3CC[C@H]12 as well?
A) -0.318 (inactive)

---

// values below are reported composite z-score
# assay-procedure: small-molecule microarray binders of probe aNog, primary screen, biochemical, biotinylated probe, 635/667 nm fluorescence (AID 1115);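 also: probe is biotinylated aNog protein used at 0.15 µg/mL for 1 h at 4 C; z-score combines 667 nm fluorescence of each spot with its signal to noise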
# study-conditions: higher = more signal
Enter the number alone.

// known answers, use as guide
compound	composite z-score
C[C@H]1CC[C@H]2C(=O)O[C@H](COc3ccc(C(C)(C)C)cc3)CN2[C@@H]1c1ccc(Br)cc1	0.0051
COC(=O)[C@H](C)NC(=O)CCC1CC(OC(=O)NCc2ccc3c(c2)OCO3)CC2(CCCC(COC(=O)NCC3CCCCC3)O2)O1 (stereo not given in full)	0.656
CON=C[C@@H](NS(=O)(=O)c1ccc(C)cc1)[C@H](C)C=CCC(=O)OC	-0.425
CCc1cc2c(nc1CC)CCN(CCC(C)=NO[C@@H](C)c1cn([C@H](CO)Cc3ccccc3)nn1)C2	-0.203
COC(=O)CC=C[C@@H](C)[C@H](OCc1cccc(-c2ccccc2)c1)C1CCCCC1	-0.168

Could you now consider this next compound?
Q) Please report the recorded composite z-score for CCOC(=O)C1=NO[C@@]2(C=C(Br)C3(OCCCO3)[C@H]3O[C@H]32)C1 .
A) -0.452

---

List of composite z-score values.
# test-system: Neurogenic locus notch homolog protein 2 (Homo sapiens) (UniProt Q04721)
# Sequence (Q04721 whole entry, looked up): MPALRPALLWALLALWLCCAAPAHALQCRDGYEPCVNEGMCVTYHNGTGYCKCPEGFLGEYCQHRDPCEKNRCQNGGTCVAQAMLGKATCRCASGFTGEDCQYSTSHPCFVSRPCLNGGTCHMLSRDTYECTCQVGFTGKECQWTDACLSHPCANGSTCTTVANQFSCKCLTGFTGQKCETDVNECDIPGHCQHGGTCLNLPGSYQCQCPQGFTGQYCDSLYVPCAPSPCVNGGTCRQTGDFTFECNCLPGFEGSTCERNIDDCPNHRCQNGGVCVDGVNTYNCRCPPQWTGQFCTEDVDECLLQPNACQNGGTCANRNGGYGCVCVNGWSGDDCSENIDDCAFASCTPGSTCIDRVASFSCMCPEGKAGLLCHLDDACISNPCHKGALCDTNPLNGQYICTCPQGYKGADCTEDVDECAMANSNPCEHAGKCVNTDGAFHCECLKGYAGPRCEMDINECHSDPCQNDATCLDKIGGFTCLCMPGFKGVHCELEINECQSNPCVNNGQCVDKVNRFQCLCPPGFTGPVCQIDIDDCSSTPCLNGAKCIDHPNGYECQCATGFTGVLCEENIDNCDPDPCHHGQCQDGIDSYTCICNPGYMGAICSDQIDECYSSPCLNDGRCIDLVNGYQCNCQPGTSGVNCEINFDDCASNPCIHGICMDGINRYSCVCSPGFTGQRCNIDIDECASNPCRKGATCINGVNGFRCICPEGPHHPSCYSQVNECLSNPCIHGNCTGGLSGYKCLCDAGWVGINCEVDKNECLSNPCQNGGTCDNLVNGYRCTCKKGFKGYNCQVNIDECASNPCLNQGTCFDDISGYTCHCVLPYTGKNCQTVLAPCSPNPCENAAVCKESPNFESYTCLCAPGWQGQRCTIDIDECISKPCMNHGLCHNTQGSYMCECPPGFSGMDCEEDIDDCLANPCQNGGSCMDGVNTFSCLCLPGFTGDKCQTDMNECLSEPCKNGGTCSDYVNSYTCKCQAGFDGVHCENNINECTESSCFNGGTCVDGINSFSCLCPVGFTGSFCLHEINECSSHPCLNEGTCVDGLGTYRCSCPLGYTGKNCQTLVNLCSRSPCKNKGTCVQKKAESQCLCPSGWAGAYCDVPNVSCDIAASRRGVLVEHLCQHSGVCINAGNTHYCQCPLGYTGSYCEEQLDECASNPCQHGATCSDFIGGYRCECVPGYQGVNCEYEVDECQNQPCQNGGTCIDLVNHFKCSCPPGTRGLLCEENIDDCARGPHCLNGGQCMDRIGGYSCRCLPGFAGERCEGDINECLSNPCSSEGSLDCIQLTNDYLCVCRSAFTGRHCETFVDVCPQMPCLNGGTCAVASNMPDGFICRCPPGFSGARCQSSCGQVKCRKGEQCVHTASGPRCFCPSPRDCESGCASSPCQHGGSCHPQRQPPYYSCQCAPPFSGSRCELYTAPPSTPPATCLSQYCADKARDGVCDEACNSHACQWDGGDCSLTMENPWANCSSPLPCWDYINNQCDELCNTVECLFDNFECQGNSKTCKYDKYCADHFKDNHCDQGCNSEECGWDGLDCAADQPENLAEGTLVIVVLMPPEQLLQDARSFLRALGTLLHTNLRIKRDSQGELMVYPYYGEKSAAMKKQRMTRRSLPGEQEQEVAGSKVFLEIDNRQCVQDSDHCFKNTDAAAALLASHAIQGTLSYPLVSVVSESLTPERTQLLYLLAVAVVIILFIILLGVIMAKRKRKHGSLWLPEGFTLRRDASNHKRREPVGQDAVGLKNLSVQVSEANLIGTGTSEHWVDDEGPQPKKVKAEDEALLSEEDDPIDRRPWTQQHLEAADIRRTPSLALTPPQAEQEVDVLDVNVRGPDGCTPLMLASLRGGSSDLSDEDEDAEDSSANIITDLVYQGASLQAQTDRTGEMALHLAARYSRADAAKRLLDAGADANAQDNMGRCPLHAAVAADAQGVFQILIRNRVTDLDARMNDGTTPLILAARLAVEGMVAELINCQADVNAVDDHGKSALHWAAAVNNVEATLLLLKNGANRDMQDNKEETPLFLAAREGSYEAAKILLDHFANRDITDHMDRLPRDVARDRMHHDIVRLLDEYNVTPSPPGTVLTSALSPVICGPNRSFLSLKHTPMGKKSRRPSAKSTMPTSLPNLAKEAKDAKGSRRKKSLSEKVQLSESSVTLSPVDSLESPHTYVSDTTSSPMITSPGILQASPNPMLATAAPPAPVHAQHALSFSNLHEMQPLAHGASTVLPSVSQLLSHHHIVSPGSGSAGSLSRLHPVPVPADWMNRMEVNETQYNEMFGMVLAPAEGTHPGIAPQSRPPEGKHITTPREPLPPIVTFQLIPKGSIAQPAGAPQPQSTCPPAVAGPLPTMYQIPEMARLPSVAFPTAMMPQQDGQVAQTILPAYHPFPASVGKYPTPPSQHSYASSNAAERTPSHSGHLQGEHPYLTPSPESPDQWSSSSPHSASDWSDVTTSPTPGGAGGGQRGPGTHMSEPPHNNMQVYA
# assay-procedure: Notch2 binders on small-molecule microarrays, primary screen, biochemical, small-molecule microarray, 635 nm fluorescence, stem cell growth factors (AID 1073)
# study-conditions: Notch2 binding, higher = more signal
Just the number.

>>> df
                                   compound  measured_parameter  measured
0  CCOC(=O)[C@H](CC(C)C)NC(=O)CCC1CC(OC(=O)NCCc2ccc(F)cc2)CC2(CCCC(COC(=O)NCCOc3ccccc3)O2)O1 (stereo partly drawn)   composite z-score      1.25
1  CCN1C(=O)[C@@H]2[C@H]3C(=CC[C@@H]2C1=O)C1(OCCCO1)[C@H]1O[C@H]1[C@H]3O   composite z-score      1.17
2  CCOC(=O)NN=C1C[C@@H](O)[C@@H](O)[C@@H]2[C@@H]3C(=O)N(Cc4ccc5c(c4)OCO5)C(=O)[C@@H]3CC[C@H]12   composite z-score    -0.434
3  O=C1C[C@@H](O)[C@@H](O)[C@@H]2[C@@H]3C(=O)N(Cc4ccccc4)C(=O)[C@@H]3CC[C@@H]12   composite z-score     0.474
4  COc1cccc([C@H]2Oc3ccc(OC)cc3C(=NOC[C@@H](O)[C@H]3O[C@@H]4OC(C)(C)O[C@@H]4[C@H]3O)[C@@H]2O)c1   composite z-score     0.533
5  COC(=O)CC=C[C@@H](C)[C@@H](C=NO[C@H](C)c1cn([C@H](CO)Cc2ccccc2)nn1)OC   composite z-score   -0.0484
6  CCOC(=O)C1=NO[C@@]2(C=C(Br)C3(OCCCO3)[C@H]3O[C@H]32)C1   composite z-score     0.282

Now, please, on to the next compound.
Q) What does the data say about its composite z-score? Entry: CON=C[C@@H](NS(=O)(=O)c1ccc(C)cc1)[C@H](C)C=CCC(=O)OC
A) -0.98

Reference source: PubChem BioAssay
